Here, each record is paired with measured %Inh data.
Tested on: KIT-autoinhibited
Conditions: concentration: 1 μM, replicates: in singlicate; n = 1;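 also: KINOMEscan kinase panel screen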
Express it in %; write the number only.

Reference set (5 entries):
{"molecule": "CCS(=O)(=O)c1ccc(OC)c(Nc2nccc(-c3c(-c4cccc(NC(=O)c5c(F)cccc5F)c4)nn4ncccc34)n2)c1 [GSK326180]", "tested-system": "KIT-autoinhibited", "%Inh / %": 0}
{"molecule": "COc1cc(Nc2ncc3c(C)nc(-c4cc5ccccc5[nH]4)n3n2)cc(OC)c1OC [GW869516]", "tested-system": "KIT-autoinhibited", "%Inh / %": 22}
{"molecule": "Cl.Cl.NCC(NCc1ccc(-c2ccnc3[nH]ccc23)s1)c1ccccc1 (centres unmarked) [GSK1321565]", "tested-system": "KIT-autoinhibited", "%Inh / %": 0}
{"molecule": "COc1cc(Nc2nccc(-c3c(-c4cccc(NC(=O)c5c(F)cccc5F)c4)nn4ccccc34)n2)cc(OC)c1OC [GSK323521]", "tested-system": "KIT-autoinhibited", "%Inh / %": 23}
{"molecule": "C[C@@H]1CC[C@@H](C(=O)Nc2ccccc2)CN1c1cc(-c2ccc3c(N)n[nH]c3c2)nc(N)n1 [GSK2286062]", "tested-system": "KIT-autoinhibited", "%Inh / %": 0}

Recorded %Inh of CNC(=O)c1ccccc1Nc1nc(Nc2ccc(N3CCOCC3)cc2)ncc1Cl.Cl [GSK1576028] , please. 10

Recorded %Inh of CCn1c(-c2nonc2N)nc2c(C#CC(C)(C)O)nc(OC[C@H](N)c3ccccc3)cc21 [GSK943949] , please. 4

Recorded %Inh of O=C(Nc1n[nH]c2nc(-c3ccc(O)cc3)ccc12)C1CC1 [SB-710363] , please. 0

Recorded %Inh of CC(=O)Nc1nc2cnc(Nc3cc(NC(=O)c4cccc(C5(C#N)CC5)c4Cl)ccc3C)nc2s1 , please. 0

====

Tested on: PLK2
Settings: concentration: 1 μM, replicates: in singlicate; n = 1
endpoint: %Inh (%)
Express it in %; write the number only.

Reference set (5 entries):
{"compound": "CCn1c(-c2nonc2N)nc2c(C#CC(C)(C)O)nc(OC[C@H](N)c3ccccc3)cc21", "%Inh (%)": 0}
{"compound": "O=C(Nc1cccc(-c2nn3ncccc3c2-c2ccnc(Nc3ccccc3)n2)c1)c1c(F)cccc1F", "%Inh (%)": 55}
{"compound": "O=C(NC1CCN(c2ccnc(Nc3ccc(F)cc3)n2)C1)c1cc2ccccc2s1 (stereo not drawn)", "%Inh (%)": 0}
{"compound": "CNC(=O)c1ccccc1Nc1nc(Nc2ccc(N3CCOCC3)cc2)ncc1Cl.Cl", "%Inh (%)": 81}
{"compound": "Cl.Cl.NCC(NCc1ccc(-c2ccnc3[nH]ccc23)s1)c1ccccc1 (stereo not drawn)", "%Inh (%)": 5}

Proceed to the following item.
Recorded %Inh of Cc1cccc(Nc2nc(N[C@H]3CCNC3)ncc2C(N)=O)c1.Cl , please. 1

====

Test system: CIT
Conditions: concentration: 1 μM, replicates: in singlicate; n = 1
endpoint: %Inh (%)
Express it in %; write the number only.

Recorded %Inh of Fc1ccc(-c2ncn(C3CCNCC3)c2-c2ccnc(Oc3ccc(-c4ccccc4)cc3)n2)cc1 , please. 98.9

Recorded %Inh of Cc1ccc(F)c(C(=O)Nc2cccc(-c3nn4ccccc4c3-c3ccnc(Nc4cccc(F)c4)n3)c2)c1F , please. 9

Recorded %Inh of Oc1cc(Nc2ccnc3cc(I)ccc23)ccc1F , please. 30

Recorded %Inh of COc1cccc(NC(=O)NC2CCN(c3ccnc(Nc4cc(OC)c(OC)c(OC)c4)n3)C2)c1 (stereo not shown) , please. 23

====

Test system: CDC2L5
Construct: gene CDK13
Details: concentration: 1 μM, replicates: in singlicate; n = 1
endpoint: %Inh (%)
Express it in %; write the number only.

{"compound": "COC(=O)Nc1nc2cc(Oc3ccc(NC(=O)Nc4cc(C(F)(F)F)ccc4F)cn3)ccc2[nH]1.Cl.Cl", "output-unit": "%", "value-reported": 69}
{"compound": "Cc1cccc(NC(=O)Nc2ccc(Oc3ncnc4ccn(C)c34)cc2)c1", "output-unit": "%", "value-reported": 0}
{"compound": "COc1cccc(C(=O)Nc2cccc(Oc3ccc4nc(NC(=O)C5CC5)cn4n3)c2)c1", "output-unit": "%", "value-reported": 2}
{"compound": "O=C(Nc1n[nH]c2cc(-c3ccoc3)ccc12)C1CC1", "output-unit": "%", "value-reported": 29}
{"compound": "CN1CCN(CCCNc2nccc(-c3c(-c4ccc(F)cc4)nn4cc(C(F)(F)F)ccc34)n2)CC1", "output-unit": "%", "value-reported": 0}
{"compound": "COc1cc(Nc2nccc(N3CCC(NC(=O)Nc4cccc(C(C)=O)c4)C3)n2)cc(OC)c1OC (centres unmarked)", "output-unit": "%", "value-reported": 0}
{"compound": "Cc1ccc(C)c(NC(=O)NC2CCN(c3ccnc(Nc4ccc(F)cc4)n3)C2)c1 (centres unmarked)", "output-unit": "%", "value-reported": 0}

Proceed to the following item.
Recorded %Inh of O=C(NC1CCN(c2ccnc(Nc3ccc(F)cc3)n2)C1)c1cc2ccccc2s1 (centres unmarked) , please. 0

====

Here, each record is paired with measured %Inh data.
Tested on: TEC
Settings: concentration: 1 μM, replicates: in singlicate; n = 1
Express it in %; write the number only.

Lab note: need %Inh for c1ccc(-c2cnc3nccnn23)cc1 on TEC, anyone have it? 0

Lab note: need %Inh for c1ccc(-c2n[nH]cc2Nc2ccnc3ccccc23)nc1 on TEC, anyone have it? 0

Lab note: need %Inh for Nc1ncc(-c2ccc3nccc(-c4ccncc4)c3c2)cc1S(=O)(=O)N1CCOCC1 on TEC, anyone have it? 9

Lab note: need %Inh for O=C(O)C(F)(F)F.O=C(O)C(F)(F)F.O=c1[nH]ccc2nc(N[C@@H]3CCCNC3)nc(Nc3ccc(S(=O)(=O)N4CCOCC4)cc3)c12 on TEC, anyone have it? 38

====

Here, each record is paired with measured %Inh data.
Test system: ERK2
Construct: gene MAPK1
Conditions: concentration: 1 μM, replicates: in singlicate; n = 1
Express it in %; write the number only.

{"molecule": "COc1cc2c(cc1OCCN1CCNCC1)ncc1c3ccc(C#N)cc3[nH]c21", "%Inh / %": 0}

Recorded %Inh of CN1CCN(CCCNc2nccc(-c3c(-c4ccc(F)cc4)nn4cc(C(F)(F)F)ccc34)n2)CC1 [GW621581] , please. 0

Recorded %Inh of COc1cc(Nc2ncc3c(C)nc(-c4cc5ccccc5[nH]4)n3n2)cc(OC)c1OC [GW869516] , please. 0

Recorded %Inh of O=C(Nc1cccc(Oc2ccc3nc(NC(=O)C4CC4)cn3n2)c1)c1ccccc1C(F)(F)F , please. 0

Recorded %Inh of O=C(Nc1cccc(-c2nn3ncccc3c2-c2ccnc(Nc3ccccc3)n2)c1)c1c(F)cccc1F [GSK198271] , please. 6

Recorded %Inh of CCn1c(-c2nonc2N)nc2c(C#CC(C)(C)O)nc(OC[C@H](N)c3ccccc3)cc21 [GSK943949] , please. 3

Recorded %Inh of COc1cc(Nc2nccc(N3CCC(NC(=O)Nc4cccc(C(C)=O)c4)C3)n2)cc(OC)c1OC (centres unmarked) [GSK1379753] , please. 0

Recorded %Inh of O=c1[nH]cc(-c2ccc(N3CCOCC3)cc2)c2sc(-c3cn[nH]c3)cc12 [GSK2276055] , please. 0

====

Test system: GSK3B
Settings: concentration: 1 μM, replicates: in singlicate; n = 1
Here, each record is paired with measured %Inh data.
Express it in %; write the number only.

Reference set (3 entries):
{"compound": "CCn1c(-c2nonc2N)nc2c(C#CC(C)(C)O)nc(OC[C@H](N)c3ccccc3)cc21 [GSK943949]", "tested-system": "GSK3B", "value-reported": 59}
{"compound": "Cl.Cl.NCC(C(=O)Nc1cc(Br)c(-c2ccnc3[nH]ccc23)s1)c1ccccc1 (stereo not shown) [GSK1269851]", "tested-system": "GSK3B", "value-reported": 7}
{"compound": "O=c1[nH]cc(-c2ccc(N3CCOCC3)cc2)c2sc(-c3cn[nH]c3)cc12 [GSK2276055]", "tested-system": "GSK3B", "value-reported": 77}

Recorded %Inh of Cl.NC(=O)c1cccc(Nc2nccc(Nc3ccc(Oc4c(Cl)cccc4Cl)c(Cl)c3)n2)c1 [GW659009] , please. 0

====

Tested on: CDK4
Settings: concentration: 1 μM, replicates: in singlicate; n = 1
Binarize %Inh at 5%; below is t, at or above is f.

Use the examples below as a reference point.
{"substance-smiles": "c1ccc(Oc2ccc(Nc3ccnc4cc(-c5ccc(CNCCN6CCOCC6)o5)ccc34)cc2)nc1", "category": "t"}
{"substance-smiles": "FC(F)(F)c1ccc(/C=C/c2cncnc2Nc2ccc3[nH]c(Cc4ccccc4)nc3c2)cc1", "category": "f"}

Lab note: %Inh threshold 5%. Does this compound come in strictly under it? COc1cccc(-c2ccc3c(NC(=O)C4CC4)n[nH]c3n2)c1 f

Lab note: %Inh threshold 5%. Does this compound come in strictly under it? CNC(=O)c1ccccc1Nc1nc(Nc2ccc(N3CCOCC3)cc2)ncc1Cl.Cl f

Lab note: %Inh threshold 5%. Does this compound come in strictly under it? O=C(Nc1n[nH]c2cc(-c3ccoc3)ccc12)C1CC1 t

Lab note: %Inh threshold 5%. Does this compound come in strictly under it? CCn1c(-c2nonc2N)nc2c(C#CC(C)(C)O)ncc(OCCCCN)c21.O=C(O)C(F)(F)F.O=C(O)C(F)(F)F t

Lab note: %Inh threshold 5%. Does this compound come in strictly under it? Nc1ncnc2c1nc(-c1ccccc1)n2-c1ccccc1 f
